assay: CREB reporter modulators without forskolin, primary screen, cell-based, PC12, CRE-LacZ reporter, unstimulated (AID 1145); conditions: no forskolin, luminescence, 4.5 h, higher = more signal, called active from +8 up or from −8 down
The source made the active and inactive calls.
Observable: z-score

Examples with their reported z-score follow.
Query string: Dear colleague, I am looking for the recorded z-score of the following molecule: `CO[C@H]1O[C@H](CO)[C@@H](OC(=O)Nc2ccc(Oc3ccccc3)cc2)[C@H](OC(=O)Nc2ccc3c(c2)OCO3)[C@H]1OC(=O)Nc1ccc2c(c1)OCO2`
Result string: 1.09 (inactive)

Query string: Quick one: CCCCCN1CC=CC23O[C@@H]4/C=C\CCC(C)OC(=O)C4[C@H]2C(=O)N(C(C)CO)[C@@H]3C1=O (stereo partly drawn)
Result string: -1.17 (inactive)

// next entry
Query string: Dear colleague, I am looking for the recorded z-score of the following molecule: `COc1cc2c(cc1OC)CN(C(=O)[C@H]1[C@@H]3C(=O)O[C@@H](c4ccccc4)[C@@H](c4ccccc4)N3[C@@H](c3ccc(O)cc3)[C@]13C(=O)Nc1ccccc13)CC2`
Result string: 0.358 (inactive)
